- EXPERIMENTAL DETAILS: qHTS Assay for Lipid Storage Modulators (AID 1519)
- PROTOCOL CONDITIONS: Drosophila S3 cells, BODIPY lipid droplet/cell ratio, laser cytometry; measured here: cell count channel max response; cells loaded with oleic acid
Inconclusive results are not listed.
Provide the recorded max response for the entries that follow.
// note: answer is a bare numeric in %

Suppose we examine the compound CC(C)COC[C@H](CN(Cc1ccccc1)c1ccccc1)N1CCCC1 ; what max response value has been reported?
-16.9

Then COc1ccc2[nH]cc(CCNc3ncnc4ccc(-c5ccccc5C#N)cc34)c2c1 ?
-13.6

Then O=C(O)c1cc(O)c2c(c1)C(=O)c1cc(O)cc(O)c1C2=O ?
22.4

----------
- Test system: CP266
- EXPERIMENTAL DETAILS: qHTS profiling for inhibitors of Plasmodium falciparum proliferation (AID 504749); note: nearly all actives have a fitted effect of over 60% in size
- PROTOCOL CONDITIONS: P. falciparum in erythrocytes, SYBR Green DNA, 72 h; series mostly up to 28.7 µM
Records with an inconclusive call do not appear. The source made the active and inactive calls. Calls come from the whole dose curve; as a rule, active = well fitted inhibition curve with a large enough effect; inconclusive = small, poorly fitted or top-dose-only effect; inactive = flat fitted curve, though single readings scatter.
TEST READOUT: outcome

COMPOUND | VAL
O=c1[nH]cnc2c1ncn2C1OC(CO)C(O)C1O (stereo not drawn) | inactive
COc1ccccc1OC[C@H](O)COC(N)=O | inactive
C[C@H](NCCc1ccc(O)cc1)[C@@H](O)c1ccc(O)cc1 | inactive

----------
- TARGET: Dual specificity protein kinase CLK4 (Homo sapiens)
- EXPERIMENTAL DETAILS: qHTS Assay for Inhibitors of CDC-like Kinase 4 (Kinase-Glo Assay) (AID 1770); note: nearly all actives have a fitted effect of over 65% in size
- PROTOCOL CONDITIONS: recombinant Clk4, Kinase-Glo ATP depletion luminescence; series mostly up to 66.7 µM
Inconclusive results are not listed. Active and inactive are the calls of the source. Calls come from the whole dose curve; as a rule, active = well fitted inhibition curve with a large enough effect; inconclusive = small, poorly fitted or top-dose-only effect; inactive = flat fitted curve, though single readings scatter.
Permitted responses: active, inactive

Which result was noted for this compound in the test: Cc1cnc(CNc2nc(-c3ccoc3)nc3ccccc23)cn1
inactive

Then Cc1cnc(CNc2cc(-c3ccc4c(c3)OCO4)ncn2)cn1 ?
active

Then CS(=O)(=O)Nc1cccc(-c2nc(NCc3ccccc3)c3ccccc3n2)c1 ?
active

Then COc1cccc(Cn2c(=O)c(-c3cc(F)cc(F)c3)nc3cnc(N4CCOCC4)nc32)c1 ?
inactive

Then Cc1cccc(CNc2ncncc2-c2ccc(C(=O)N(C)C)cc2)c1 ?
inactive

Then Cn1c(=O)c(CCc2ccccc2)nc2cnc(Nc3ccccc3)nc21 ?
inactive

Then COCCNc1ncnc2ccc(-c3c(C)noc3C)cc12 ?
active

Then COc1ncc2nc(-c3ccccc3)c(=O)n(CCC#N)c2n1 ?
inactive

Then CNc1ncnc2ccc(-c3ccc4c(c3)OCO4)cc12 ?
active

Then N#Cc1cccc(-c2nc(NCc3cccnc3)c3ccccc3n2)c1 ?
inactive

----------
- TARGET: Cytochrome P450 3A4 (Homo sapiens)
- EXPERIMENTAL DETAILS: qHTS Assay for Inhibitors and Substrates of Cytochrome P450 3A4 (AID 884); note: nearly all actives have a fitted effect of over 50% in size
- PROTOCOL CONDITIONS: recombinant CYP3A4, Luciferin-PPXE luminescence; series mostly up to 57.1 µM
Inconclusive results are not listed. Activity calls are given as the source filed them. The call rests on the fitted dose curve; in most records, active means well fitted inhibition curve with a large enough effect; inconclusive means small, poorly fitted or top-dose-only effect; inactive means no such curve, though single readings can be large or run the other way.
Permitted responses: label 1 = active, label 0 = inactive

Which result was noted for this compound in the test: CN(Cc1ccco1)c1cc(-c2cccnc2)ncn1
label 1

Then O=S(=O)(c1ccccc1)N1CCC2(CCCN(c3cccc(-c4ccccc4)c3)C2)CC1 ?
label 1

Then C/C=C\C(=O)N(CC)c1ccccc1C ?
label 0

Then Cc1ccccc1-c1nc(NCc2cccnc2)c2ccccc2n1 ?
label 1

Then COc1ccc2[nH]cc(CCNc3nc(-c4ccc(N(C)C)cc4)nc4ccccc34)c2c1 ?
label 1

Then Cc1cccc(CNc2cc(-c3cccc(C#N)c3)ncn2)c1 ?
label 1

Then Cc1cnc(CNc2ncncc2-c2ccccc2CN(C)C)cn1 ?
label 1

Then COc1cccc(Cn2c(=O)c(CCc3ccccc3)nc3cnc(OC)nc32)c1 ?
label 1

Then O=C(/C=C/c1ccc(O)c(O)c1)OC(Cc1ccc(O)c(O)c1)C(=O)O (stereo not given) ?
label 0

Then COc1ccc(C(=O)N2CCC3(CC2)CCN(c2ccccc2)CC3)cc1 ?
label 0

Then c1csc(CNc2nc(-c3ccoc3)nc3ccccc23)c1 ?
label 1

Then COc1cccc(-c2nc(NCc3cnc(C)cn3)c3ccccc3n2)c1 ?
label 1

Then C=CC(C1=CC(=O)C(OC)=CC1=O)c1ccccc1 (stereo not given) ?
label 1

Then N#Cc1cccc(NC(=O)N2CC3(CCN(C(=O)c4cccc(F)c4)CC3)C2)c1 ?
label 0

Then c1ccc(Nc2ncnc3ccc(-c4ccc5c(c4)OCO5)cc23)cc1 ?
label 1

----------
- System: DIV30
- EXPERIMENTAL DETAILS: qHTS profiling for inhibitors of Plasmodium falciparum proliferation (AID 504749); note: nearly all actives have a fitted effect of over 60% in size
- PROTOCOL CONDITIONS: P. falciparum in erythrocytes, SYBR Green DNA, 72 h; series mostly up to 12.8 µM
Records with an inconclusive call do not appear. The source made the active and inactive calls. The call rests on the fitted dose curve; in most records, active means well fitted inhibition curve with a large enough effect; inconclusive means small, poorly fitted or top-dose-only effect; inactive means flat fitted curve, though single readings scatter.
Permitted responses: active, inactive

Which result was noted for this compound in the test: CCC[C@H]1C(=O)N2C(N(C)C)=Nc3ccc(C)cc3N2C1=O
inactive

Then CCCN[C@@H](C)C(=O)Nc1ccccc1C ?
inactive

Then C[C@@H](C(=O)O)c1ccc(C(=O)c2cccs2)cc1 ?
inactive

Then CCN1C(=O)N[C@@H](c2ccccc2)C1=O ?
inactive

Then CCn1cc(C(=O)O)c(=O)c2cc(F)c(N3CCN[C@@H](C)C3)c(F)c21 ?
inactive

Then NS(=O)(=O)c1cc([C@@]2(O)NC(=O)c3ccccc32)ccc1Cl ?
inactive

Then CCCN(CCC)C(=O)[C@@H](CCC(=O)O)NC(=O)c1ccccc1 ?
inactive

Then Cc1cc(/C=C\c2ccc3cc(N(C)C)ccc3[n+]2C)c(C)n1-c1ccccc1 ?
active

Then CN[C@@H](CC(C)C)C(=O)N[C@@H]1C(=O)N[C@H](CC(N)=O)C(=O)N[C@@H]2C(=O)N[C@H]3C(=O)N[C@H](C(=O)N[C@H](C(=O)O)c4cc(O)cc(O)c4-c4cc3ccc4O)[C@H](O)c3ccc(c(Cl)c3)Oc3cc2cc(c3O[C@H]2O[C@@H](CO)[C@@H](O)[C@@H](O)[C@@H]2O[C@@H]2C[C@](C)(N)[C@H](O)[C@H](C)O2)Oc2ccc(cc2Cl)[C@@H]1O ?
inactive

----------
- EXPERIMENTAL DETAILS: NFAT Signaling Pathway (AID 444);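 note: carbachol stimulus at about its EC50 of 1 µM final; % is set by controls: 0 for no effect and ±100 for the full control effect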
- PROTOCOL CONDITIONS: Jurkat NFAT-bla M1, carbachol, beta-lactamase ratio, 5 h; at 7.69 µM (top of the series) unless noted
Records with an inconclusive call do not appear. The source made the active and inactive calls. The call rests on the fitted dose curve; in most records, active means well fitted curve in either direction with a large enough effect (not every such curve was filed as active); inconclusive means small, poorly fitted or top-dose-only effect, or another doubt; inactive means flat fitted curve, though single readings scatter.
Provide the recorded activity change, negative = inhibition for the entries that follow.

Suppose we examine the compound COc1ccccc1CNc1ncncc1-c1cccc(NS(C)(=O)=O)c1 ; what activity change, negative = inhibition value has been reported?
22.3% (inactive)

Then N#Cc1cccc(-c2nc(Nc3ccncc3)c3ccccc3n2)c1 ?
-19.2% (inactive)

Then O=C(Nc1cccc(F)c1)N1CC[C@@]2(CCCN(S(=O)(=O)c3ccccc3)C2)C1 ?
7.62% (inactive)

Then CN(C)C(=O)c1ccc(-c2ccc3ncnc(NCc4ccccc4)c3c2)cc1 ?
13% (inactive)

Then CC(C)NC(=O)N1CC[C@@]2(CCCN(C(=O)c3cnccn3)C2)C1 ?
11.4% (inactive)

Then COc1ccc(CNc2nc(-c3ccoc3)nc3ccccc23)c(OC)c1 ?
-8.73% (inactive)

Then c1ccc(CNc2ncncc2-c2ccc3c(c2)OCO3)cc1 ?
7.28% (inactive)

Then COc1ccc(Oc2ncc3nc(-c4ccc(Cl)cc4)c(=O)n(C4CC4)c3n2)cc1 ?
2.73% (inactive)

Then Cc1cnc(CNc2cc(-c3ccccc3C)ncn2)cn1 ?
14% (inactive)

Then COCCn1c(=O)c(-c2cccc(F)c2)nc2cncnc21 ?
-5.24% (inactive)

Then Cc1cnc(CNc2cc(-c3ccccc3CN(C)C)ncn2)cn1 ?
-9.03% (inactive)

Then COc1ccc(C(=O)N2CCC[C@@]3(CCN(Cc4cc(C(F)(F)F)cc(C(F)(F)F)c4)C3)C2)cc1 ?
-5.26% (inactive)

Then COCC(=O)N1CCC2(CCCN(C(=O)Nc3cccc(C#N)c3)C2)CC1 ?
-3.66% (inactive)

Then O=C(c1cccc(F)c1)N1CCC[C@@]2(CCN(c3ccccn3)C2)C1 ?
-7.81% (inactive)

Then Cc1noc(C)c1-c1nc(NC2CC2)c2ccccc2n1 ?
-6.72% (inactive)

Then COc1ccc2[nH]cc(CCNc3ccnc(-c4ccc(C(=O)N(C)C)cc4)n3)c2c1 ?
-3.74% (inactive)

Then O=c1c(-c2cccs2)nc2cnc(Oc3ccccc3)nc2n1Cc1cccs1 ?
1.21% (inactive)

Then Cn1cccc1C(=O)N1CCC[C@@]2(CCN(c3cccc(-c4ccccc4)c3)C2)C1 ?
-10.5% (inactive)

Then O=S(=O)(c1ccccc1)N1CCC2(CC1)CN(c1ccccc1)C2 ?
8.23% (inactive)

Then N#Cc1cccc(-c2ccc3ncnc(N4CCNCC4)c3c2)c1 ?
6.74% (inactive)

Then O=C(c1cccc(F)c1)N1CCC2(CCCN(c3ccccc3)C2)CC1 ?
-1.29% (inactive)

Then Clc1ccccc1-c1nc(NC2CCNCC2)c2ccccc2n1 ?
7.15% (inactive)

Then COCCn1c(=O)c(-c2ccc(OC)cc2)nc2cnc(Nc3ccccc3)nc21 ?
-9.78% (inactive)

Then COc1ccc(C(=O)N2CCC[C@@]3(CCN(c4cccc(-c5ccccc5)c4)C3)C2)cc1 ?
-15.1% (inactive)

Then COc1ccccc1CNc1ncncc1-c1ccccc1C ?
-19.5% (inactive)

Then CN1CC[C@@]2(CCCN(C(=O)c3cccn3C)C2)C1 ?
9.28% (inactive)

Then CN1CCN(c2ncc3nc(-c4ccccc4)c(=O)n(C4CC4)c3n2)CC1 ?
30% (inactive)

Then O=c1c(-c2cccs2)nc2cncnc2n1-c1ccccc1 ?
-9.03% (inactive)

Then CN(Cc1ccco1)c1ccnc(-c2cccnc2)n1 ?
-13.4% (inactive)

Then COc1ccc(C(=O)N2CCC[C@@]3(CCN(C(=O)Nc4cccc(F)c4)C3)C2)cc1 ?
2.1% (inactive)

Then O=c1ccc2cc(O)c(O)cc2o1 ?
28.9% [at 17.2 µM] (inactive)

Then Cc1ccccc1-c1nc(NC2CC2)c2ccccc2n1 ?
-19.1% (inactive)

Then COc1ccc2[nH]cc(CCNc3cc(-c4ccc(C(=O)N(C)C)cc4)ncn3)c2c1 ?
0.0562% (inactive)

Then COc1ccccc1-c1nccc(Nc2ccc(F)cc2)n1 ?
10.2% (inactive)

Then COc1ccc(C(=O)N2CCC[C@@]3(CCN(Cc4ccccc4OC)C3)C2)cc1 ?
-18.6% (inactive)

Then O=c1c(CCc2ccccc2)nc2cncnc2n1C1CC1 ?
-8.26% (inactive)

Then COC(=O)N1CCC2(CCN(C(=O)Nc3ccc(OC)cc3)CC2)CC1 ?
-8.6% (inactive)

Then O=C(Nc1ccccc1)N1CC[C@@]2(CCCN(C(=O)c3csnn3)C2)C1 ?
9.61% (inactive)

Then COCC(=O)N1CCC2(CC1)CN(C(=O)Nc1ccccc1)C2 ?
18.9% (inactive)

Then CN(C)Cc1ccccc1-c1nc(NC2CC2)c2ccccc2n1 ?
-22.4% (inactive)

Then O=C(Nc1cccc(F)c1)N1CCC2(CC1)CCN(C(=O)c1cccc(F)c1)CC2 ?
3.68% (inactive)
